Origin of values: ChEMBL document CHEMBL1149252

Reported IC50 for target or system Interstitial collagenase (Homo sapiens, UniProt P03956), by entry.

{"COMPOUND": "CC#CCOc1ccc(S(=O)(=O)C(C(=O)NO)C2CCN(C(=O)c3ccccc3)CC2)cc1 (centres undefined)", "TEST_TARGET": "Interstitial collagenase (Homo sapiens, UniProt P03956)", "IC50": "> 10 µM"}
{"COMPOUND": "CC#CCOc1ccc(SC(C(=O)NO)C2CCCCC2)cc1 (centres undefined)", "TEST_TARGET": "Interstitial collagenase (Homo sapiens, UniProt P03956)", "IC50": "> 10 µM"}
{"COMPOUND": "CC#CCOc1ccc(SC(C(=O)NO)C(C)C)cc1 (centres undefined)", "TEST_TARGET": "Interstitial collagenase (Homo sapiens, UniProt P03956)", "IC50": "> 10 µM"}
{"COMPOUND": "CC#CCOc1ccc(S(=O)(=O)C(C(=O)NO)C2CCN(C(C)=O)CC2)cc1 (centres undefined)", "TEST_TARGET": "Interstitial collagenase (Homo sapiens, UniProt P03956)", "IC50": "> 10 µM"}
{"COMPOUND": "CC#CCOc1ccc([S@@](=O)[C@H](C(=O)NO)c2ccccc2)cc1", "TEST_TARGET": "Interstitial collagenase (Homo sapiens, UniProt P03956)", "IC50": "> 10 µM"}
{"COMPOUND": "CCCCOc1ccc(S(=O)(=O)C2(C(=O)NO)CCN(Cc3ccc(Br)cc3)CC2)cc1", "TEST_TARGET": "Interstitial collagenase (Homo sapiens, UniProt P03956)", "IC50": "3.96 µM"}
{"COMPOUND": "CC#CCOc1ccc(S(=O)(=O)C(C(=O)NO)c2ccccc2)cc1 (centres undefined)", "TEST_TARGET": "Interstitial collagenase (Homo sapiens, UniProt P03956)", "IC50": "4.57 µM"}
{"COMPOUND": "CC#CCOc1ccc([S@+]([O-])[C@H](CCCCCC)C(=O)NO)cc1", "TEST_TARGET": "Interstitial collagenase (Homo sapiens, UniProt P03956)", "IC50": "3.2 µM"}
{"COMPOUND": "CC#CCOc1ccc(SC(C(=O)NO)c2ccccc2)cc1 (centres undefined)", "TEST_TARGET": "Interstitial collagenase (Homo sapiens, UniProt P03956)", "IC50": "> 10 µM"}
